Can you tell me pEC50 for the items I'm about to list?
Tested on: A549
PROTOCOL NOTES: Antiproliferative activity against human A549 cells after 72 hrs by MTS assay
Assay type: functional, cell-based
APPLIED CONDITIONS: A549, 72 h
Field pEC50 (float): negative decimal logarithm of the concentration in molar.

Tell me measured pEC50 for CC(C)=CCc1c(O)cc(/C=C/c2cc(O)c3c(c2)C[C@@H]2C(C)(C)[C@H](O)[C@H](O)C[C@@]2(C)O3)cc1O please.
6.72

Tell me measured pEC50 for COc1cc(/C=C/c2cc(O)c(CC=C(C)C)c(O)c2)cc2c1O[C@]1(C)CC[C@@H](O)C(C)(C)[C@H]1C2 please.
5.82

Tell me measured pEC50 for CC(C)=CCc1c(O)cc(/C=C/c2cc(O)c3c(c2)C[C@@H]2C(C)(C)[C@H](O)CC[C@@]2(C)O3)cc1O please.
6.10

Tell me measured pEC50 for CC(C)=CCC/C(C)=C/Cc1cc(/C=C/c2cc(O)c(CC=C(C)C)c(O)c2)cc(O)c1O please.
5.15

Tell me measured pEC50 for CC(C)=CCC[C@]1(C)Oc2c(O)cc(/C=C/c3cc(O)c4c(c3)OC(C)(C)C(O)C4)cc2C[C@@H]1O (stereo partly specified) please.
6.62

Tell me measured pEC50 for COc1cc(/C=C/c2cc(O)c(CC=C(C)C)c(O)c2)cc2c1O[C@]1(C)C[C@@H](O)[C@@H](O)C(C)(C)[C@H]1C2 please.
6.59

* * *

Can you tell me EC50 for the items I'm about to list?
Tested on: A549
PROTOCOL NOTES: Antiproliferative activity against human A549 cells after 72 hrs by MTS assay
Type: functional, cell-based
APPLIED CONDITIONS: A549, 72 h
Non-standard residues stand in square brackets, D forms with d. Residues, ends and D or L forms follow the SMILES beside them. *: point of attachment. Dolaproine = CO[C@@H]([C@@H]1CCCN1)[C@@H](C)C(=O)O; Dil = CC[C@H](C)[C@H](NC)[C@@H](CC(=O)O)OC; X1 = C[C@@H](N*)[C@@H](O)c1ccccc1; NMeV = CN[C@H](C(=O)O)C(C)C

Tell me measured EC50 for CC[C@H](C)[C@@H]([C@@H](CC(=O)N1CCC[C@H]1[C@H](OC)[C@@H](C)C(=O)N[C@H](C)[C@@H](O)c1ccccc1)OC)N(C)C(=O)[C@@H](NC(=O)[C@@H](NC)C(C)C)C(C)C (H-[NMeV]V[Dil][Dolaproine]-X1) please.
0.5 nM

Tell me measured EC50 for CC(C)=CCC/C(C)=C/CC/C(C)=C/Cc1c(O)cc(/C=C/c2ccc(O)c(O)c2)cc1O please.
> 10000 nM

Tell me measured EC50 for CC(C)=CCC/C(C)=C/Cc1cc(/C=C/c2cc(O)c3c(c2)OC(C)(C)[C@@H](O)C3)cc(O)c1O please.
730 nM
